Sourced from ChEMBL document CHEMBL3885861

Organism: Rattus norvegicus
assay-overview: Open TG-GATES - Regimen: Single
Format: toxicity, organism-based, Sprague-Dawley
Design: regimen Single, gender Male, age 6 weeks
assay-setup: in vivo, po, 100 mg/kg, 9 h, tissue Plasma, route gavage, dose level Low
measured-endpoint: CRE
Please state the number and follow it with the unit.

Field: example entries. Status: answers known.
In one line, give reported CRE of the entry CCOC(=O)CCC(=O)O[C@H]1[C@H](O[C@@H]2[C@@H](C)[C@H](O[C@H]3C[C@@](C)(OC)[C@@H](O)[C@H](C)O3)[C@@H](C)C(=O)O[C@H](CC)[C@@](C)(O)[C@H](O)[C@@H](C)C(=O)[C@H](C)C[C@@]2(C)O)O[C@H](C)C[C@@H]1N(C)C [ERYTHROMYCIN ETHYLSUCCINATE] .
0.1 mg/dL

In one line, give reported CRE of the entry COc1ccc2[nH]c([S+]([O-])Cc3ncc(C)c(OC)c3C)nc2c1 (centres undefined) [OMEPRAZOLE] .
0.3 mg/dL

In one line, give reported CRE of the entry COC1=CC(=O)C[C@@H](C)[C@]12Oc1c(Cl)c(OC)cc(OC)c1C2=O [GRISEOFULVIN] .
0.3 mg/dL

Next:
In one line, give reported CRE of the entry NC(N)=Nc1nc(CSCCC(N)=NS(N)(=O)=O)cs1 [FAMOTIDINE] .
0.4 mg/dL
